meta.source: ChEMBL document CHEMBL3988442

inhibition values for the compounds below.
# experimental target: Methionyl-tRNA synthetase, putative (Leishmania donovani (strain BPK282A1)) (UniProt E9BF75)
# experiment: Leishmania donovani Methionine tRNA synthetase (LdMetRS):v6. Primary screen assay
# Assay type: functional
# Parameters: conc 80 nM, time 150 minutes
Out of some 68,000 compounds screened, about 25 (0.04%) showed an effect of 50% or more. The full list was thinned out, with strong results kept by preference.
Value expressed in %; do not type the unit.

* Cn1cc(C(=O)N[C@@H]2CN(Cc3cccs3)[C@@H]3CCCO[C@@H]32)cn1 | 16.3

inhibition for O=C(c1ccco1)N1C(CN2CCOCC2)[C@]2(O)CC[C@H]1CC2 (stereo not given in full) ?
15.1

Given Cc1nc(CC(=O)N2c3ccccc3OCC2C)cs1 (stereo not given) , state its recorded inhibition.
6.21

What does the data say about its inhibition? Entry: `Cc1nnc([C@H]2C[C@H]3CN(C(=O)Cc4ccc(F)cc4)CC[C@@H]3O2)o1`
18.5

Give the measured inhibition of `Cc1cccc(N2CC[C@@H]3[C@@H](CO[C@H]3CNC(=O)c3ccco3)C2)n1` .
13.1

* * *

# experimental target: Methionyl-tRNA synthetase, putative (Leishmania donovani (strain BPK282A1)) (UniProt E9BF75)
# experiment: Leishmania donovani Methionine tRNA synthetase (LdMetRS):v6. Primary screen assay
# Assay type: functional
# Parameters: conc 80 nM, time 150 minutes
The whole screen tested about 68,000 compounds, of which about 25 (0.04%) showed an effect of 50% or more. The sample as a whole holds a higher share of strong results than the screen did.
Kindly return YES if reported inhibition is no lower than 10%; return NO if it is lower.

- O=C([C@@H]1C[C@H]2[C@H](CCN2Cc2nccs2)O1)N1CCOCC1: YES
- COc1cccc(-c2noc3c2CN(c2ncnc4c2CCC4)CC3)c1: YES
- O=S(=O)(NCCSc1nncn1C1CC1)c1ccccc1: NO
- CCN1C(=O)[C@]2(CC[C@@H]3CN(S(=O)(=O)CC(C)C)C[C@@H]32)N=C1C: YES
- O=S(=O)(CCSc1nccn1C1CC1)c1ccccc1: NO

# next compound below
Could you tell me if the measured inhibition of `NC1CCN(C2CCN(c3ccc(-c4ccco4)cc3)CC2)CC1` reaches 10% or more?
YES

* * *

# experimental target: Methionyl-tRNA synthetase, putative (Leishmania donovani (strain BPK282A1)) (UniProt E9BF75)
# experiment: Leishmania donovani Methionine tRNA synthetase (LdMetRS):v6. Primary screen assay
# Assay type: functional
# Parameters: conc 80 nM, time 150 minutes
Among all 68,000 compounds or so, about 25 (0.04%) showed an effect of 50% or more. Many of the other results were omitted from the sample, so strong results are more common in it than they were.
Recorded inhibition by entry
Give the number; % is assumed, so skip it.

The examples below pair each entry with its known result.
* O=C1[C@H]2CN(S(=O)(=O)c3ccccc3)C[C@H]2CN1Cc1cccnc1 | 4.19
* CCCN1C[C@H]2CC[C@@H]1CN(C(=O)c1ccc(N(C)CCO)cc1)C2 | 12.9
* O=C(Cn1ccc(=O)cc1)N1C[C@H]2CC[C@@H]1CN(c1ncccn1)C2 | 15.1
* O=C1C[C@H]2CC[C@@H](CN1)N2C(=O)CCc1ccc2c(c1)OCO2 | 17
* Cc1cnc(CN2C[C@H]3C[C@H](Oc4ccccc4)C[C@H]3C2)cn1 | 0
* CC(=O)N1CCN(c2ccc3ccc(C(=O)NC4CCCC4)cn23)CC1 | 52.9

Entry under review: `COC(=O)CNC(=O)c1cccc(C(=O)N(C)c2ccccc2)c1` . Reported inhibition?
95

Return reported inhibition; argument: `CC(C)N1[C@H](CN2CCCC2)C[C@@H]2CN(Cc3cnn(C)c3)CC[C@@H]21`
12.3

* * *

# experimental target: Methionyl-tRNA synthetase, putative (Leishmania donovani (strain BPK282A1))
# experiment: Leishmania donovani Methionine tRNA synthetase (LdMetRS):v6. Primary screen assay
# Assay type: functional
# Set-up: conc 80 nM, time 150 minutes
About 25 (0.04%) of roughly 68,000 compounds showed an effect of 50% or more. Shown is part of a subset that was picked to be rich in strong results.
Please mark Condition met if the recorded inhibition is equal to or greater than 10%, and Condition not met if it falls below.

API: above_or_equal(metric=inhibition, cutoff=10%) for item `O=C(NCc1ccco1)[C@H]1CC[C@@H]2[C@@H](CCN2c2ncccn2)O1`
Condition not met

Please check the record `Cc1cnn(CCNCc2c(C)nn(C)c2Cl)c1` and state if its inhibition is at or above 10%.
Condition met

Identify whether the reported inhibition of the following compound is 10% or greater: `Cc1cnn(CCNCc2c(C)nn(-c3ccccc3)c2C)c1`
Condition met

* * *

# experimental target: Methionyl-tRNA synthetase, putative (Leishmania donovani (strain BPK282A1))
# Sequence (whole entry): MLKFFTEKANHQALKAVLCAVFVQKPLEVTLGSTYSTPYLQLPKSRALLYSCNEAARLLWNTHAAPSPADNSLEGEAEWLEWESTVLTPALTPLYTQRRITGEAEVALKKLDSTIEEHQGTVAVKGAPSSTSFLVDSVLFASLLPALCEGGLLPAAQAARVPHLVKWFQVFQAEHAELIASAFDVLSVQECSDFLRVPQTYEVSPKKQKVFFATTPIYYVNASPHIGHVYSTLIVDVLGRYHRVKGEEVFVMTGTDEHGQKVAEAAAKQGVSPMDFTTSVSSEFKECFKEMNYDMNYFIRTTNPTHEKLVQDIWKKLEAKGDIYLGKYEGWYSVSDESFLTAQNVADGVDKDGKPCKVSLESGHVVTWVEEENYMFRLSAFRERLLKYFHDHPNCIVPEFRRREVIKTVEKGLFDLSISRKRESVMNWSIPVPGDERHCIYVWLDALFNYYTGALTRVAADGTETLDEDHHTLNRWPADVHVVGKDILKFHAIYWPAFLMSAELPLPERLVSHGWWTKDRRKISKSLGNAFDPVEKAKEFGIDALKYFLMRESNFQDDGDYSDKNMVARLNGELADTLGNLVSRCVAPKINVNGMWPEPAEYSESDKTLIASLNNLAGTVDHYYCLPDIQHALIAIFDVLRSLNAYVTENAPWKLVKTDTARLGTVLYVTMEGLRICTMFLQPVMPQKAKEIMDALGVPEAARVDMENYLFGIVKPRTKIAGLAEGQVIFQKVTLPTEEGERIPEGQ
# experiment: Leishmania donovani Methionine tRNA synthetase (LdMetRS):v6. Primary screen assay
# Format: functional
# Parameters: conc 80 nM, time 150 minutes
Screen size: about 68,000 compounds; about 25 (0.04%) showed an effect of 50% or more. Only a selection was taken, and strong results are over-represented in it overall.
test readout: inhibition (%)
# unit: % | format: bare number

Answered examples (2):
• CCCN1CCN(Cc2cccc(OC)c2)[C@H]2CS(=O)(=O)C[C@H]21 = 12.4
• CCC(C)NC(=O)c1ccc(-c2ccco2)[nH]c1=O (configuration not stated) = 86.2

Entry `Cc1cccnc1NC(=O)NCc1ccc(N2CCNC(=O)C2)cc1` : reported inhibition = ?
50.6

Need inhibition, item O=C(N1CCOCC1CO)C1(c2cccs2)CCCC1 (configuration not stated)
8.7

* * *

# experimental target: Methionyl-tRNA synthetase, putative (Leishmania donovani (strain BPK282A1)) (UniProt E9BF75)
# Sequence (whole entry): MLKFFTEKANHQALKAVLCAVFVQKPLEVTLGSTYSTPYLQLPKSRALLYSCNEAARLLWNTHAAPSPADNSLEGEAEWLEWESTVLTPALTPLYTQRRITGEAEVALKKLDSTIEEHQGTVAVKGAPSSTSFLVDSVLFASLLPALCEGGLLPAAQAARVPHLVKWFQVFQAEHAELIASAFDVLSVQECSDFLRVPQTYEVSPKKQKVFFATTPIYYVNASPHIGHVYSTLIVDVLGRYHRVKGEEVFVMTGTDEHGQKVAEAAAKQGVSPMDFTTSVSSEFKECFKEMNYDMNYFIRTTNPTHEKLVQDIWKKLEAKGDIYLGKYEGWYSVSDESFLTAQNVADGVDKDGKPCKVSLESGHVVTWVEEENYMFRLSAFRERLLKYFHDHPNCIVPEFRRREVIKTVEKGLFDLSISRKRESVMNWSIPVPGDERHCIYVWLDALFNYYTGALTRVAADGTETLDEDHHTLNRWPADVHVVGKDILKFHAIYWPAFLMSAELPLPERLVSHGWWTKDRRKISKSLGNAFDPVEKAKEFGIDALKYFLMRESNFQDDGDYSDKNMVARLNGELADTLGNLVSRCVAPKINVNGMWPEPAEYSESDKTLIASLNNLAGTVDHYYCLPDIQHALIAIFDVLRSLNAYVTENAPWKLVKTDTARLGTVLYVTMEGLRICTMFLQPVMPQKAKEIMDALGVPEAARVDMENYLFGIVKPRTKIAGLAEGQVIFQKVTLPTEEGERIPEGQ
# experiment: Leishmania donovani Methionine tRNA synthetase (LdMetRS):v6. Primary screen assay
# Format: functional
# Parameters: conc 80 nM, time 150 minutes
Screen size: about 68,000 compounds; about 25 (0.04%) showed an effect of 50% or more. Many of the other results were omitted from the sample, so strong results are more common in it than they were.
Classify by measured inhibition: Fulfilled if it is equal to or exceeds 20%, Not fulfilled if it is smaller.

Field: example entries. Status: answers known.
* NC(=O)N1CC[C@H]2CO[C@H](CNC(=O)c3ccnnc3)[C@H]2C1 | Not fulfilled
* CNC(=O)N1C[C@H]2C[C@H](C(=O)NCc3cccnc3)[C@@H](C1)O2 | Not fulfilled
* CC1COc2ccccc2N1C(=O)c1cscn1 (stereo not given) | Not fulfilled

Exam item: decide whether the reported inhibition for `CC1=N[C@@]2(CC[C@@H]3CN(Cc4ccccc4C)C[C@@H]32)C(=O)N1CC1CC1` is at least 20%.
Not fulfilled

Form field: inhibition at least 20%? Entry: CC1COc2ccccc2N1C(=O)CCc1cscn1 (stereo not given)
Fulfilled
